STUDY TARGET: Torsin-1A (Homo sapiens)
TEST SUMMARY: torsin A binders from cell lysate, primary screen, small-molecule microarray, wild-type, 635/667 nm (AID 1149)
CONDITIONS: COS7 hTOR1A-WT lysate, 635 nm fluorescence, higher = more signal
METRIC NAME: composite z-score

Exam item: Data request, read-out composite z-score, for "CC(=O)NCCCC[C@@H]1NC(=O)[C@@H]2C[C@H](C(=O)NCc3ccc(F)cc3)[C@H](c3cccc(OCCO)c3)N2C1=O"
Marked response: 0.544

Exam item: Can you share its composite z-score? I mean this compound: "C=C(COC)/C(=C/C[C@@H](OC(=O)c1ccncc1)c1ccc(OCCO)cc1)c1cc(C(=O)OC)ccc1OC"
Marked response: 1.06

Exam item: Name the reported composite z-score value associated with the compound "O=C(NCc1ccccc1)c1ccc(Br)cc1[N+](=O)[O-]"
Marked response: 0.0031

Exam item: composite z-score lookup needed for "Cc1ccc(N2C(=O)c3ccccc3[C@@H](C(=O)NCc3ccccc3)[C@@H]2c2ccc(CO)cc2)nc1" , thanks.
Marked response: 0.628

Exam item: Could you share which composite z-score value was measured for "COc1ccc(CCN2C(=O)[C@@]3(c4ccc([N+](=O)[O-])cc4)CC(=O)N(CC45CC6CC(CC(C6)C4)C5)[C@@H]3c3ccc(CO)cc32)cc1" ?
Marked response: 0.16

Exam item: // composite z-score lookup, key: "O=C1C[C@@](C(=O)NC2CC2)(c2ccc([N+](=O)[O-])cc2)[C@@H](c2ccc(CO)cc2I)N1CC12CC3CC(CC(C3)C1)C2"
Marked response: -0.371

Exam item: Looking for the measured composite z-score of "CCOC(=O)C[C@H]1[C@H](OC(=O)c2cc3ccccc3oc2=O)[C@@H](NC(=O)C2CCCCC2)c2cc(OCCCO)ccc2N1C(=O)c1ccc2ccccc2n1" , can you help?
Marked response: 0.16

###

TEST SUMMARY: binders of probe aFGF2 on microarray, primary screen, stem cell growth factor project, biochemical, small-molecule microarray, fluorescence 635/667 (AID 1067);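 further: measures binding of biotinylated aFGF2 protein to printed compounds on slides; z-score merges feature fluorescence and signal-to-noise across triplicate slides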
CONDITIONS: higher = more signal
Record form. Attribute: composite z-score. Fill in for each entry.
// return a plain number; no unit text

Exam item: Look at this molecule and give its reported composite z-score. "Cc1ccc(N2C(=O)c3ccccc3[C@](C)(C(=O)O)[C@@H]2c2ccc(CO)cc2)nc1"
Marked response: -0.224

Exam item: GET /values?readout=composite z-score&item= "C[C@]1(C(=O)NCc2ccccc2)c2ccccc2C(=O)N(Cc2cc(C(F)(F)F)cc(C(F)(F)F)c2)[C@H]1c1ccc(CO)cc1"
Marked response: 0.168

Exam item: Can you look up the measured composite z-score of "[N-]=[N+]=NCc1ccccc1C[C@]1(C(N)=O)N=C(c2ccc(OCCCO)cc2)O[C@H]1c1ccccc1CN=[N+]=[N-]" for me?
Marked response: 0.128

Exam item: Which composite z-score reading was recorded for the molecule "Cc1ccc(N2C(=O)c3ccccc3[C@@H](C(=O)NCC(F)(F)F)[C@@H]2c2ccc(CO)cc2)nc1" ?
Marked response: -0.195

###

STUDY TARGET: Dickkopf-related protein 1 (Homo sapiens)
TEST SUMMARY: DKK1 binders on small-molecule microarrays, primary screen, biochemical, small-molecule microarray, 635 nm fluorescence scan (AID 1106);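 further: score merges emission near 667 nm with signal to noise over three replicate slides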
CONDITIONS: DKK1 binding, higher = more signal
Kindly state composite z-score for each of the entries shown.
# print the numeric value only

Exam item: Requested read-out composite z-score, target or system Dickkopf-related protein 1 (Homo sapiens), entry "O=C1O[C@@H](c2ccccc2)[C@@H](c2ccccc2)N2[C@@H](c3ccccc3OCCO)[C@]3(C(=O)Nc4ccc(C#CC5=CCCCC5)cc43)[C@@H](C(=O)O)[C@H]12"
Marked response: 0.471

Exam item: Look up composite z-score with Dickkopf-related protein 1 (Homo sapiens) for this compound: COC(=O)c1ccc(C#CC(NP(=O)(c2ccccc2)c2ccccc2)c2ccccc2)cc1 (stereo not given)
Marked response: 0.567

Exam item: Under Dickkopf-related protein 1 (Homo sapiens): composite z-score value of "COc1cccc([C@H]2N[C@H](C(=O)O)CC[C@@H]2C)c1" ?
Marked response: 0.0655

Exam item: Which measured composite z-score belongs to "CC(C)CNC(=O)[C@@]1(C)c2ccccc2C(=O)N(Cc2ccc(OC(F)(F)F)cc2)[C@H]1c1ccc(CO)cc1" , tested on Dickkopf-related protein 1 (Homo sapiens)?
Marked response: -0.973

Exam item: # value lookup — system Dickkopf-related protein 1 (Homo sapiens), readout composite z-score, item "CC1=C([C@H](O)CCc2ccccc2)[C@H](CO)[C@@H]2C(=O)N(Cc3ccccc3)C(=O)[C@@H]2C1"
Marked response: 0.28

Exam item: API: value(readout=composite z-score, system=Dickkopf-related protein 1 (Homo sapiens)) for record "C=C[C@H](OC)[C@@H](OC(=O)Nc1ccc(SC)cc1)c1ccc(O)c(F)c1"
Marked response: -0.39

Exam item: Give composite z-score (Dickkopf-related protein 1 (Homo sapiens)) of the following compound: "CO[C@@H]1COC(=O)[C@H](C)NC(=O)CC=C[C@@H](C)[C@H](NS(=O)(=O)c2ccc(C)cc2)COC(=O)CC=C[C@@H]1C"
Marked response: 0.0647

Exam item: Please tell me: composite z-score of "COC(=O)c1c(CC[C@@H](CO)NC(=O)N[C@H](Cn2cc(-c3cncn3C)nn2)C(C)C)oc(C(C)=O)c1C(=O)OC" , system Dickkopf-related protein 1 (Homo sapiens)?
Marked response: 0.265

Exam item: Test system Dickkopf-related protein 1 (Homo sapiens); read-out composite z-score; what value for "COc1ccc(CCNC(=O)[C@@]2(c3ccc([N+](=O)[O-])cc3)CC(=O)N(C(C)C)[C@@H]2c2ccc(CO)cc2)cc1" ?
Marked response: -1.43

Exam item: Query composite z-score on Dickkopf-related protein 1 (Homo sapiens) for "CO[C@H]1COC(=O)CC=C[C@H](C)COC(=O)[C@@H](OCc2ccccc2)C=C[C@@H]1C"
Marked response: 2.07

Exam item: Hi! What's the reported composite z-score for "CO[C@@H]1COC(=O)[C@H](C)NC(=O)CC=C[C@@H](C)[C@H](OC)COC(=O)[C@H](C)NC(=O)CC=C[C@H]1C" on Dickkopf-related protein 1 (Homo sapiens)?
Marked response: 0.503

Exam item: Give Dickkopf-related protein 1 (Homo sapiens) composite z-score for "Cc1ccc(S[C@]2(C(=O)O)CC(=O)N(Cc3ccccc3)[C@@H]2c2ccc(CO)cc2)cc1"
Marked response: -0.304

Exam item: Notebook: pull reported composite z-score for Dickkopf-related protein 1 (Homo sapiens), entry "COC(=O)[C@@]1(Cc2ccc(OC)cc2)[C@H]2c3cc(C(=O)N(C)C)n(Cc4ccc(C)c(F)c4F)c3C[C@H]2CN1C(=O)c1ccccc1"
Marked response: -1.11

Exam item: For Dickkopf-related protein 1 (Homo sapiens), provide composite z-score of "COCCOC(=O)N1C(=O)[C@@]2(c3cc(C#CCC(C(=O)OC)C(=O)OC)ccc31)[C@H](c1ccccc1OCCO)N1[C@H](c3ccccc3)[C@H](c3ccccc3)OC(=O)[C@H]1[C@@H]2C(=O)N1CCCCCCC1" please.
Marked response: 1.4

Exam item: Notebook entry, Dickkopf-related protein 1 (Homo sapiens) assay: composite z-score of "CCOC(=O)C1=CC[C@@H](c2ccc(-c3ccc(OCc4ccccc4)cc3)c(OC)c2)N(S(=O)(=O)c2ccc(C)cc2)[C@H]1c1ccccc1" = ?
Marked response: 0.273

###

TEST SUMMARY: binders of probe aFST on microarray, primary screen, stem cell growth factor project, biochemical, small-molecule microarray, fluorescence 635/667 (AID 1086);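 further: score merges 667 nm fluorescence with signal-to-noise of each printed compound spot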
CONDITIONS: higher = more signal
Mark no (0) for composite z-score values under 0.3, and yes (1) for everything at or above.

Exam item: Say whether CCC1=C2CN(Cc3ccccc3Br)[C@@H]([C@@H](O)Cc3ccccc3)C2C=CCC1 (some centres undefined) shows composite z-score of 0.3 or more.
Marked response: yes (1)

Exam item: Can "CCOC(=O)C1=CC[C@@H](c2ccccc2)N(S(=O)(=O)c2ccc(C)cc2)[C@H]1C" be said to have composite z-score at or above 0.3?
Marked response: yes (1)

Exam item: Please tell me: is the compound "COCCOC(=O)N1C(=O)[C@@]2(c3cc(C#CCC(C(=O)OC)C(=O)OC)ccc31)[C@H](c1ccccc1OCCO)N1[C@H](c3ccccc3)[C@H](c3ccccc3)OC(=O)[C@H]1[C@@H]2C(=O)N1CCCCCCC1" at or over 0.3 in terms of composite z-score?
Marked response: yes (1)

Exam item: Reported composite z-score reaches at least 0.3 for "COC(=O)[C@@]1(Cc2ccccc2)[C@H]2c3cc(C(=O)N4CCCC4)n(CCN4CNCC4=O)c3C[C@H]2CN1C(=O)c1ccccc1" ?
Marked response: yes (1)

Exam item: API: above_or_equal(metric=composite z-score, cutoff=0.3) for item "CCOC(=O)C[C@H]1[C@H](OC(=O)c2cc3ccccc3oc2=O)[C@@H](NC(=O)C2CCCCC2)c2cc(OCCCO)ccc2N1C(=O)c1ccc2ccccc2n1"
Marked response: yes (1)

Exam item: Does composite z-score meet or surpass 0.3 for "Cc1ccc(N2C(=O)c3ccccc3[C@@H](C(=O)NCc3ccccc3)[C@@H]2c2ccc(CO)cc2)nc1" ?
Marked response: no (0)

Exam item: Identify whether the reported composite z-score of the following compound is 0.3 or greater: "CCOC(=O)[C@H]1C/C=C/C[C@H](C(=O)OCC)C(=O)O[C@H]2[C@@H](OC)O[C@H](CO)[C@@H](OC(=O)Nc3ccc(Br)cc3)[C@@H]2OC1=O"
Marked response: yes (1)

Exam item: State whether the measured composite z-score reaches 0.3, counting equality as reaching it, for "C=C(COC)/C(=C/C[C@@H](OC(=O)c1ccncc1)c1ccc(OCCO)cc1)c1cc(C(=O)OC)ccc1OC"
Marked response: no (0)

Exam item: API: above_or_equal(metric=composite z-score, cutoff=0.3) for item "O=C1O[C@H](c2ccccc2)[C@H](c2ccccc2)N2[C@H]1[C@@H](C(=O)NC[C@H](O)c1ccccc1)[C@]1(C(=O)Nc3ccc(C#CC4(O)CCCCCC4)cc31)[C@H]2c1ccc(OCCO)cc1"
Marked response: yes (1)

Exam item: Could you verify whether the entry "CO[C@H]1COC(=O)[C@H](C)NC(=O)CC=C[C@@H](C)[C@H](NS(=O)(=O)c2ccc(C)cc2)COC(=O)CC=C[C@@H]1C" shows composite z-score of no less than 0.3?
Marked response: no (0)

Exam item: Answer whether composite z-score of "C[N+](C)(C)CCCC[C@@H]1NC(=O)[C@H]2C[C@@H](C(=O)NCc3ccc(F)cc3)[C@@H](c3cccc(OCCO)c3)N2C1=O" is greater than or equal to 0.3.
Marked response: no (0)

Exam item: Is reported composite z-score greater than or equal to 0.3 here: "CCCNC(=O)[C@@H]1c2ccccc2C(=O)N(Cc2cc(F)cc(C(F)(F)F)c2)[C@H]1c1ccc(CO)cc1"
Marked response: yes (1)

Exam item: Textbook exercise: given the entry "CO[C@H]1COC(=O)CC=C[C@H](C)[C@@H](OC)COC(=O)CC=C[C@@H]1C" , state whether its composite z-score is greater than or equal to 0.3.
Marked response: no (0)

Exam item: Check this compound for composite z-score at or above 0.3: Cc1cc(C)c(C(O)C2C=CC3C(=O)N(C)C(=O)C3N2N2CCCCC2)c(C)c1 (centres undefined)
Marked response: yes (1)

Data provenance: PubChem BioAssay
